Source: the supplement of paper PMC9170038

Tested on: MS2 coat protein
Experiment: apparent KD of MS2 coat protein; designed switch direction (-1 OFF switch, 1 ON switch): -1; higher = weaker reporter binding
Settings: input ligand: none
QUANTITY: apparent KD of MS2 coat protein (nM)
// return numeric value only (unit: nM, not printed)

apparent KD of MS2 coat protein reading for GAAAACGAAGAGGAUAUAUGAUAUCAAAGCUUCAUAGAAGGCUUCACAUGAGGAUCACCCAUGUGAUCUUCAAU [Mat - Exclusion 6 - JL Mod - D23] (Eterna round: R97, puzzle: Exclusion 6) : 41.6

***
apparent KD of MS2 coat protein reading for CACGUGUCAGGAUAUAGGACAGAUAUAGUCACAAUCUCUGCCUAGAAGGGACAUGAGGAUCACCCAUGUCUAUA [EX4 C.17] (Eterna round: R97, puzzle: Exclusion 4) : 20.5

apparent KD of MS2 coat protein reading for CUUGCGGACAAAGGAUAUUGCGGUGACCGGCUCGGCGUACCGAGCCUACAUGAGGAUCACCCAUGUAAGAAGGUUGACGCUGGU [JL ViennaUCT Qudice mod 4] (Eterna round: R96, puzzle: Exclusion NG 2) : 27.6

apparent KD of MS2 coat protein reading for CAGCUGAAUGUCAGGAUAUCUAGAGCGAUAGCUCUAGAGAAGGGACAUGAGGAUCACCCAUGUCACUCCAGCUG [BmEx4/3-B4] (Eterna round: R97, puzzle: Brourd's mod of Exclusion 4) : 18.2

apparent KD of MS2 coat protein reading for GCGGACUUGAUCGUGAGAUCAGAGACAUGAGGAUCACCCAUGUAGGAUAUCGAUUCGUUUCGAAUCGAGAAGGGCGUGGUCCGC [JL denovo 15] (Eterna round: R96, puzzle: Exclusion NG 3) : 70.2

apparent KD of MS2 coat protein reading for CCCAUGUCAGGAUAUUAAUUGGACGGGAAAUCCCGCCCACUUGAGAAGGGACAUGAGGAUCACCCAUGUAAAAC [Esatedbe] (Eterna round: R97, puzzle: Exclusion 4) : 385

---

Tested on: MS2 coat protein
Experiment: apparent KD of MS2 coat protein; designed switch direction (-1 OFF switch, 1 ON switch): -1; higher = weaker reporter binding
Settings: input ligand: FMN 200 uM
Threshold check on apparent KD of MS2 coat protein: at or above 40 nM gives true (1), strictly below gives false (0).

Answered cases to consult:
Input line: Could you verify whether the entry UAGUUAUUCACAGGAUAUCGCCUCUUAUUACAUGAGGAUCACCCAUGUUUAUUUUGUUACAUGUUCGAGAAGGGUGUAGUCUUU [JR_ExcNG2_Sub046] (Eterna round: R96, puzzle: Exclusion NG 2) shows apparent KD of MS2 coat protein of no less than 40 nM?
Output line: true (1)

Input line: Could you verify whether the entry AGCAAGCUUUUAAGAUCCUACAUGAGGAUCACCCAUGUGCUCGUCUUGUAACGUACUGUGACGAAAGUCACGGUACG [JL TOV1 3.31] (Eterna round: R97, puzzle: Sensor, turn-off variant 1) shows apparent KD of MS2 coat protein of no less than 40 nM?
Output line: true (1)

Input line: Could you verify whether the entry CGGCGACAUGAGGAUCACCCAUGUGAGGAUAUGACGGGAAAAGCGUGAGCAGUUUGUGUCAGAAGGCGCGUAGG [salish99_ex1_r4_081] (Eterna round: R97, puzzle: Exclusion 1) shows apparent KD of MS2 coat protein of no less than 40 nM?
Output line: false (0)

***
Input line: Could you verify whether the entry GCGCCAUCGUGAGAUGGCGUAAAUACAUGAGGAUCACCCAUGUAGGAUAUCGAUUGCUUUGCAGUCGAGAAGGGCAAGGUAUUU [JL ENG3 3.90] (Eterna round: R96, puzzle: Exclusion NG 3) shows apparent KD of MS2 coat protein of no less than 40 nM?
Output line: false (0)

Input line: Could you verify whether the entry UAAAGUAUAUAGGAUAUCUAGCUGGAUACAGCUAGAGAAGGAUGUACAUGAGGAUCACCCAUGUAGAUCUCAAA [Ex6/15-A1] (Eterna round: R97, puzzle: Exclusion 6) shows apparent KD of MS2 coat protein of no less than 40 nM?
Output line: false (0)

Input line: Could you verify whether the entry CUAUAGUCAGGAUAUCUAAACAGGCCGAGCGUUCGCAGUCGAGAGAAGGGACAUGAGGAUCACCCAUGUCCUCC [Eternabot (L1) Solution 6] (Eterna round: R97, puzzle: Exclusion 4) shows apparent KD of MS2 coat protein of no less than 40 nM?
Output line: false (0)

Input line: Could you verify whether the entry UAUUAACAUGUAGGAUAUCUGCACGUUUAGUGCAGAGAAGGACAUGAGGAUCACCCAUGUAGAUCAUAAUAAUUUAAUUUAAUU [ENG1/6-D2] (Eterna round: R96, puzzle: Exclusion NG 1) shows apparent KD of MS2 coat protein of no less than 40 nM?
Output line: true (1)

---

System: MS2 coat protein
Assay: apparent KD of MS2 coat protein, switch ON state; designed switch direction (-1 OFF switch, 1 ON switch): 1; higher = weaker reporter binding
Details: FMN input: 0 or 200 uM; Eterna round: R93 (includes R88 designs)
QUANTITY: apparent KD of MS2 coat protein (nM)
// return numeric value only (unit: nM, not printed)

Here are 3 sequences together with their reported answers.
apparent KD of MS2 coat protein reading for GAUAAACAUGAGGAUCACCCAUGUAGAUAUAUGGGAGGAUAUACAAAGACGAUAGUCAAAGUAGAAGGCCUAAAAG [77%, Mat - Mod of Eli - With 3 more U's] : 28.6

apparent KD of MS2 coat protein reading for AAAAAAAAAACUCAGGAUAUAGAUUGUAGAACAUGAGGAUCACCCAUGUAGUGAAAGAAGAGAGACUAGAAGGGAGUAAAAAAAAA [Same State 2 #3] : 43.2

apparent KD of MS2 coat protein reading for AAAAGACAUGAGGAUCACCCAUGUCAAAACAUAGGAGGAUAUGUCGUGAAAAAAGACUUGGCAGAAGGCCUUUGUC [SS1 - 48] : 17.3

***
apparent KD of MS2 coat protein reading for AUAUAAAUAAGGUAGGAUAUACUAAAGUAAACAUGAGGAUCACCCAUGUGAAGAAAGAAACUCAUGUAGAAGGACCAUAUAUAUA [viburnum 2] : 27.2

apparent KD of MS2 coat protein reading for AAAAAACAUGAGGAUCACCCAUGUGCAAAAUUCGCAGGAUAUUCUUUUUUUAAAUGGGAGGGAGAAGGGUGUAAAA [Nob's Hobby 20 - Jieux - Same State 1] : 20.8

apparent KD of MS2 coat protein reading for GUGGUACAUGAGGAUCACCCAUGUGUGGGAGCAUGAGGAUAUGUCAGUCCAUGAAAUACGAUAGAAGGCAUGGUGA [JR_SS001_Sub1712] : 234

apparent KD of MS2 coat protein reading for AUAAAACAUGAGGAUCACCCAUGUAGAAAUAUGGGAGGAUAUACAAAGACGAAAGUCGAGGUAGAAGGCCUAAAAG [Mat - Same State 1 - Meechl mod - D121] : 21.3

apparent KD of MS2 coat protein reading for AAAAAACAUGAGGAUCACCCAUGUAGAAACAUGGGAGGAUAUACGAAGACGAAAGUCAAAGUAGAAGGCCUAAGAG [Garnet 89] : 183

apparent KD of MS2 coat protein reading for AAAGAAGAAAGACAGGAUAUGGAUGGGUAAACAUGAGGAUCACCCAUGUAUAAGAAAGAAAGAAACCAGAAGGGUCAAAAGAAAA [Darius III] : 42.7

apparent KD of MS2 coat protein reading for AACAAUCUAUCUGAGGAUAUCAUGAAAAAAACAUGAGGAUCACCCAUGUGCAGGAAAACUGCAUAUGAGAAGGCAGAUAGAUUGA [SS2: 1101] : 21.6

---

System: MS2 coat protein
Assay: apparent KD of MS2 coat protein; higher = weaker reporter binding
Settings: Eterna round: R107; input ligand: arginine 13.2 mM
apparent KD of MS2 coat protein listing for selected sequences.

Here are 6 sequences together with their reported answers.
apparent KD of MS2 coat protein reading for `AACGUGAACGUGGUAUACCCGUGUGCCGAAGGAGCGCCCGUAAGGGCAGGUAGGUCGCGGUCGACAUGAGGAUCACCCAUGUUUG` : 39.5 nM

apparent KD of MS2 coat protein reading for GGAGUAGGAAACUAUUCCAAUCCUCGUGAACGAGGACCGGUACGGCCGCCACUCGAUAAAUAAAUACAUGAGGAUCACCCAUGUU [Ex Tryptophan A 23] : 38 nM

apparent KD of MS2 coat protein reading for CUGUUUGUUUGGGUCUGUCAAAAGAACGAUACCAGCCGCAUUAUGGGCCCUUGGCAGCGUAGGACAUGAGGAUCACCCAUGUACG [theeternabot_exclusion_MS2_Theo_A_16] : 16 nM

apparent KD of MS2 coat protein reading for GUAUUCAUGACGGCCGCCACUGCAAGCCUCCUCAUGGCAGAUUGACAUGAGGAUCACCCAUGUCUCAGGACCGGGUCUGGCAUCC [theeternabot_sameState_MS2_Trp_B_43] : 65.8 nM

apparent KD of MS2 coat protein reading for UAUAUAUAUCACUAACUGUUCUUGAGGUCUCGAGGACCGGUACGGCCGCCACUCGUACCGCCUCACAUGAGGAUCACCCAUGUCC [XTryp A #1] : 52.2 nM

apparent KD of MS2 coat protein reading for AGAGUUAGACAAAAGUCUAGCUCACCAGAAGGAGCGUCCGAAAGGACAGGUAGGUCGCUGGUGCAUGAGGAUCACCCAUGCUCCU [ArgAS 19 #OpenEnded #AlternativeMS2] : 66.6 nM

Next sequence, apparent KD of MS2 coat protein to be filled in.
apparent KD of MS2 coat protein reading for ACUACGAAGACGGCCGCCACUGAUAUUCGUAGAUCCAUCAAUACAUGAGGAUCACCCAUGUAUAUCAGGACCGGGUCAAGAUGGU [Tryp B Ex t6] : 23.3 nM
